protocol_summary: Cytotoxicity against African green monkey Vero cells assessed as cell growth inhibition after 72 hrs by MTT assay
Format: toxicity, cell-based
particulars: African green monkey (Chlorocebus sabaeus)
observed_property: log10(IC50 at 72 h) (log10 of the value in µM)

>>> print(df.to_string())
                                   molecule    observed_property  assay_value
0  COc1ccc2c(c1)c(CC(=O)NCCCCCCCC(=O)NO)c(C)n2C(=O)c1ccc(Cl)cc1  log10(IC50 at 72 h)         1.54
1  COC(=O)Cc1c(C)n(Cc2ccc(-c3cn(CCCCCCC(=O)NO)nn3)cc2)c2ccc(OC)cc12  log10(IC50 at 72 h)         0.76
2  COC(=O)Cc1c(C)n(Cc2ccc(-c3cn(CCCCCC(=O)NO)nn3)cc2)c2ccc(OC)cc12  log10(IC50 at 72 h)         1.58
3  Cc1ccc(-c2cc(C(=O)NCCCCCCCC(=O)NO)nn2-c2ccc(S(N)(=O)=O)cc2)cc1  log10(IC50 at 72 h)         1.08
4  Cc1ccc(-c2cc(C(F)(F)F)nn2-c2ccc(S(=O)(=O)NCCCCCC(=O)NO)cc2)cc1  log10(IC50 at 72 h)         0.83
5  Cc1ccc(-c2cc(C(F)(F)F)nn2-c2ccc(S(=O)(=O)NCCCCCCC(=O)NO)cc2)cc1  log10(IC50 at 72 h)         0.74
6  COC(=O)Cc1c(C)n(Cc2ccc(-c3cn(CCCCCCCC(=O)NO)nn3)cc2)c2ccc(OC)cc12  log10(IC50 at 72 h)         0.76
7  O=C(CCCCCCC(=O)Nc1ccccc1)NO [VORINOSTAT]  log10(IC50 at 72 h)         0.01
8  Cc1ccc(-c2cc(C(F)(F)F)nn2-c2ccc(S(=O)(=O)NCCCCCCCC(=O)NO)cc2)cc1  log10(IC50 at 72 h)         0.82

###

protocol_summary: Cytotoxicity against human HeLa cells assessed as cell growth inhibition after 72 hrs by MTT assay
pIC50: −log10 of the molar value.
Quick reference for pIC50 among some molecules
observed_property: pIC50

>>> df
                                 cpd_smiles  assay_value
0  Cc1ccc(-c2cc(C(F)(F)F)nn2-c2ccc(S(=O)(=O)NCCCCCCC(=O)NO)cc2)cc1         5.19
1  COc1ccc2c(c1)c(CC(=O)NCCCCCCC(=O)NO)c(C)n2C(=O)c1ccc(Cl)cc1         5.05
2  COC(=O)Cc1c(C)n(Cc2ccc(-c3cn(CCCCCCC(=O)NO)nn3)cc2)c2ccc(OC)cc12         5.40
3               O=C(CCCCCCC(=O)Nc1ccccc1)NO         5.67

###

tested_target: Prostaglandin G/H synthase 2 (Homo sapiens) (UniProt P35354)
Sequence (P35354 whole entry): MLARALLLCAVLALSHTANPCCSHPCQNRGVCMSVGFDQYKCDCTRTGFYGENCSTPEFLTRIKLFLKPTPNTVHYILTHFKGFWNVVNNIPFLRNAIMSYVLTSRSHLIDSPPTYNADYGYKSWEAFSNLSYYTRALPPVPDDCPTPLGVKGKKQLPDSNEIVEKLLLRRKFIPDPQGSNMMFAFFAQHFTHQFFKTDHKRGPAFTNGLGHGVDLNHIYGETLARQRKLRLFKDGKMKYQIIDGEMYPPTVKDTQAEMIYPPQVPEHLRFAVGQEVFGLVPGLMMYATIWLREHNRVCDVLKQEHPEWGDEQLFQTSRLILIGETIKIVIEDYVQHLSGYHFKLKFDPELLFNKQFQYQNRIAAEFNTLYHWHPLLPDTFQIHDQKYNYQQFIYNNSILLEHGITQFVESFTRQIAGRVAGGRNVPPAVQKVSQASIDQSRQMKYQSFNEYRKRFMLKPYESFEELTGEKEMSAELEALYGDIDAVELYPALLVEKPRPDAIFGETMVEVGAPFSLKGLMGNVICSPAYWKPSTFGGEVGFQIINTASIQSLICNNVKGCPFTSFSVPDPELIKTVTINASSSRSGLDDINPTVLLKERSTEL
protocol_summary: Inhibition of recombinant human COX2 at 10 uM using arachidonic acid as substrate preincubated for 15 mins followed by substrate addition for 2 mins by Cayman based fluorescence assay
Quick reference for inhibition among some compounds
observed_property: inhibition (%)

>>> df
                                 cpd_smiles  unit_of_measurement  assay_value
0  Cc1ccc(-c2cc(C(F)(F)F)nn2-c2ccc(S(=O)(=O)NCCCCCC(=O)NO)cc2)cc1                    %         97.7
1  Cc1ccc(-c2cc(C(=O)NCCCCCCCC(=O)NO)nn2-c2ccc(S(N)(=O)=O)cc2)cc1                    %         66.9
2  COc1ccc2c(c1)c(CC(=O)O)c(C)n2Cc1ccc(-c2cn(CCCCCCC(=O)NO)nn2)cc1                    %         40.6
3  COC(=O)Cc1c(C)n(Cc2ccc(-c3cn(CCCCCCC(=O)NO)nn3)cc2)c2ccc(OC)cc12                    %         50.8
4  Cc1ccc(-c2cc(C(F)(F)F)nn2-c2ccc(S(=O)(=O)NCCCCCCC(=O)NO)cc2)cc1                    %          100
5  Cc1ccc(-c2cc(C(=O)NCCCCCC(=O)NO)nn2-c2ccc(S(N)(=O)=O)cc2)cc1                    %         19.1
6  COC(=O)Cc1c(C)n(Cc2ccc(-c3cn(CCCCCC(=O)NO)nn3)cc2)c2ccc(OC)cc12                    %         11.5
7  COC(=O)Cc1c(C)n(Cc2ccc(-c3cn(CCCCCCCC(=O)NO)nn3)cc2)c2ccc(OC)cc12                    %         78.2

###

tested_target: Protein deacetylase HDAC6 (Homo sapiens)
Sequence (Q9UBN7 whole entry): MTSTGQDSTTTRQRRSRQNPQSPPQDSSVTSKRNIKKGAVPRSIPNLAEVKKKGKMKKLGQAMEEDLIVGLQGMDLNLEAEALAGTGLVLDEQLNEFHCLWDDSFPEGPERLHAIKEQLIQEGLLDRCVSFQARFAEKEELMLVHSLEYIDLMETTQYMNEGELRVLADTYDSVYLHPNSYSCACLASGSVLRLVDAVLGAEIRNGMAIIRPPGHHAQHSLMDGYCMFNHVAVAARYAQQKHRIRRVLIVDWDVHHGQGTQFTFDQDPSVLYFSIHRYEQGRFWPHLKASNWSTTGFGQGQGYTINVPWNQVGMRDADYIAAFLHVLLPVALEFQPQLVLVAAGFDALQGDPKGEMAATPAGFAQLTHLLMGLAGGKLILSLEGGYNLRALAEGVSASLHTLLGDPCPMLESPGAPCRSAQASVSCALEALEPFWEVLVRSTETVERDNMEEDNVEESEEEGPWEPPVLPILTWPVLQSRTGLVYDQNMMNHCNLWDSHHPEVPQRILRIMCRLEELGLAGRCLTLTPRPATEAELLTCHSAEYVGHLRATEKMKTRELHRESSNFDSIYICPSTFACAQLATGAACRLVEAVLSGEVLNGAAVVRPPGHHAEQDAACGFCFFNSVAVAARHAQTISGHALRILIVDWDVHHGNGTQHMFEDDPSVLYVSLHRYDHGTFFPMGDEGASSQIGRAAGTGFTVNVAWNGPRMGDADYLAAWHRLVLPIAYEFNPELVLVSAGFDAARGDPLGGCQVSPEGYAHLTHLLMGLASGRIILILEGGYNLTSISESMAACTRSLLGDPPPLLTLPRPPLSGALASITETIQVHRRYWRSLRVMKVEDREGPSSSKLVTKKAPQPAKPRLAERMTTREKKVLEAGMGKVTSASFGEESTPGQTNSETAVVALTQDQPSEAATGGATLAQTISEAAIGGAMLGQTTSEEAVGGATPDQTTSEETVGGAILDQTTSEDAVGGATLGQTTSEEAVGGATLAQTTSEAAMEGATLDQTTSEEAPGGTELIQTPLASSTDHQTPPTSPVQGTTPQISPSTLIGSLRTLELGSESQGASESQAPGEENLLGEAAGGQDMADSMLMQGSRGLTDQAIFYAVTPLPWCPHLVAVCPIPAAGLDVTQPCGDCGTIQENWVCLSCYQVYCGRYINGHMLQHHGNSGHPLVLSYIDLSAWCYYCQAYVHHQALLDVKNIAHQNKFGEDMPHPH
pIC50: −log10 of the molar value.
observed_property: pIC50

                                 cpd_smiles                             tested_target  observed_property  assay_value
0  COC(=O)Cc1c(C)n(Cc2ccc(-c3cn(CCCCCC(=O)NO)nn3)cc2)c2ccc(OC)cc12  Protein deacetylase HDAC6 (Homo sapiens)              pIC50         5.17
1  COc1ccc2c(c1)c(CC(=O)O)c(C)n2Cc1ccc(-c2cn(CCCCCCC(=O)NO)nn2)cc1  Protein deacetylase HDAC6 (Homo sapiens)              pIC50         7.66
2  Cc1ccc(-c2cc(C(=O)NCCCCCCC(=O)NO)nn2-c2ccc(S(N)(=O)=O)cc2)cc1  Protein deacetylase HDAC6 (Homo sapiens)              pIC50         7.08
3  COc1ccc2c(c1)c(CC(=O)NCCCCCC(=O)NO)c(C)n2C(=O)c1ccc(Cl)cc1  Protein deacetylase HDAC6 (Homo sapiens)              pIC50         7.31
4  COC(=O)Cc1c(C)n(Cc2ccc(-c3cn(CCCCCCCC(=O)NO)nn3)cc2)c2ccc(OC)cc12  Protein deacetylase HDAC6 (Homo sapiens)              pIC50         8.30
5  Cc1ccc(-c2cc(C(F)(F)F)nn2-c2ccc(S(=O)(=O)NCCCCCC(=O)NO)cc2)cc1  Protein deacetylase HDAC6 (Homo sapiens)              pIC50         7.12

Numbers sourced from ChEMBL document CHEMBL3875218.
